Entries and their Average diameter (nm) values follow.
Assay: AFM analysis of self-assembled peptide complexes
Format: physicochemical
Conditions: Table 12; self-assembled structure
Non-standard residues stand in square brackets, D forms with d. No end group written: not given here. Aib = CC(C)(N)C(=O)O

Worked examples follow.
[[record]]
substance = "Example 41: peptide complex (Wαm-RGD, Wαm-GS), SEQ ID NO 41 (A[Aib]A[Aib]A[Aib]A[Aib]A[Aib]A[Aib]A[Aib]A[Aib]A[Aib]A[Aib]AGRGDRGDRGDG)"
endpoint = "Average diameter (nm)"
assay_value = "20-40 nm"

[[record]]
substance = "EAUAUAUAUAUAUAUAUAUAUAGSGSGSGS (EA[Aib]A[Aib]A[Aib]A[Aib]A[Aib]A[Aib]A[Aib]A[Aib]A[Aib]A[Aib]AGSGSGSGS) [Example 95]"
endpoint = "Average diameter (nm)"
assay_value = "240-280 nm"

[[record]]
substance = "RGDRGDRGDAUAUAUAUAUAUAUAUAUAUAR [Example 71]"
endpoint = "Average diameter (nm)"
assay_value = "50-100 nm"


From here, focus on the item given below.
Notebook: EEEAUAUAUAUAUAUAUAUAUAUA(PEG8)2 [Example 92] , Average diameter (nm) read as 200 nm

---

Assay: AFM analysis of self-assembled peptide complexes
Assay type: physicochemical
Conditions: Table 12; self-assembled structure
Procedure: AFM was performed using an NX10 system (Park Systems, Korea) in a non-contact mode with PPP-NCHR AFM probes (Nanosensors, Switzerland). The DNA concentration ranged from 1 to 30 ng/μL and the peptide concentration ranged from 1 to 32 μM (in H2O). 2 μL of the sample solution was cast onto a freshly cleaved mica surface and dried. The data obtained by the SmartScan program (Park Systems, Korea) was analyzed using the XEI program (Park Systems, Korea). […]
Non-standard residues stand in square brackets, D forms with d. No end group written: not given here. Aib = CC(C)(N)C(=O)O
ENDPOINT: Average diameter (nm)

[[record]]
substance = "RRAUAUAUAUAUAUAUAUAUAUA(PEG8)2 [Example 61]"
endpoint = "Average diameter (nm)"
assay_value = "90-250 nm"

[[record]]
substance = "(PEG8)2 AUAUAUAUAUAUAUAUAUAUA [Example 57]"
endpoint = "Average diameter (nm)"
assay_value = "30-80 nm"

[[record]]
substance = "RAUAUAUAUAUAUAUAUAUAUARGDRGDRGDRGD [Example 65]"
endpoint = "Average diameter (nm)"
assay_value = "20 nm"


Notebook: RGDRGDAUAUAUAUAUAUAUAUAUAUAR [Example 70] , Average diameter (nm) read as 50 nm

Notebook: Example 38: peptide complex (Wαm-RGD), SEQ ID NO 38 (L[Aib]L[Aib]L[Aib]L[Aib]LGRGDRGDG) , Average diameter (nm) read as 50-200 nm

Notebook: (PEG8)2 AUAUAUAUAUAUAUA [Example 56] , Average diameter (nm) read as 20-40 nm

Notebook: RAUAUAUAUAUAUAUA(PEG8)2 [Example 59] , Average diameter (nm) read as 160-410 nm

Notebook: RRRAUAUAUAUAUAUAUAUAUAUAGRGDRGDRGDG (RRRA[Aib]A[Aib]A[Aib]A[Aib]A[Aib]A[Aib]A[Aib]A[Aib]A[Aib]A[Aib]AGRGDRGDRGDG) [Example 69] , Average diameter (nm) read as 40-260 nm

---

Experiment: CD (circular dichroism) spectroscopy of α-helix structure
Format: physicochemical
Conditions: Table 11; peptide complexes of Examples 37-97
Non-standard residues stand in square brackets, D forms with d. Primed or numbered codes have the meaning given here. No end group written: not given here. PEG8′ = not defined here; Aib = CC(C)(N)C(=O)O
# θ222 nm/θ208 nm ratio >= 1 gives 1, anything below gives 0

[[record]]
substance = "Example 45: peptide complex (Wαm-RGD, Wαm-GS), SEQ ID NO 45 (A[Aib]A[Aib]A[Aib]A[Aib]A[Aib]A[Aib]A[Aib]A[Aib]A[Aib]A[Aib]AGSGSGSGSG)"
qualitative_label = 1


Problem: Kindly determine if θ222 nm/θ208 nm ratio recorded for RRRAUAUAUAUAUAUAUAUAUAUA(PEG8)2 [Example 62] is above or exactly 1.
Result: 1

Problem: Kindly determine if θ222 nm/θ208 nm ratio recorded for AUAUAUAUA(PEG8)2 [Example 52] is above or exactly 1.
Result: 0

Problem: Kindly determine if θ222 nm/θ208 nm ratio recorded for Example 39: peptide complex (Wαm-RGD), SEQ ID NO 39 (A[Aib]A[Aib]A[Aib]A[Aib]A[Aib]A[Aib]A[Aib]AGRGDRGDG) is above or exactly 1.
Result: 0

Problem: Kindly determine if θ222 nm/θ208 nm ratio recorded for RAUAUAUAUA(PEG8)2 (RA[Aib]A[Aib]A[Aib]A[Aib]A-{PEG8′-PEG8′-NH2}) [Example 58] is above or exactly 1.
Result: 0

Problem: Kindly determine if θ222 nm/θ208 nm ratio recorded for (PEG8)2 AUAUAUAUAUAUAUA [Example 56] is above or exactly 1.
Result: 1

Problem: Kindly determine if θ222 nm/θ208 nm ratio recorded for WAUAUAUAU(PEG2)5 [Example 46] is above or exactly 1.
Result: 0

Problem: Kindly determine if θ222 nm/θ208 nm ratio recorded for AUAUAUAUAUAUAUAUAUAUA(PEG8)2 [Example 54] is above or exactly 1.
Result: 1

Problem: Kindly determine if θ222 nm/θ208 nm ratio recorded for WAUAUAUAUAUAUAUAU(PEG2)5 [Example 50] is above or exactly 1.
Result: 1

Problem: Kindly determine if θ222 nm/θ208 nm ratio recorded for RAUAUAUAUAUAUAUAUAUAUARGDRGDRGD [Example 64] is above or exactly 1.
Result: 1

Problem: Kindly determine if θ222 nm/θ208 nm ratio recorded for Example 38: peptide complex (Wαm-RGD), SEQ ID NO 38 (L[Aib]L[Aib]L[Aib]L[Aib]LGRGDRGDG) is above or exactly 1.
Result: 0

Problem: Kindly determine if θ222 nm/θ208 nm ratio recorded for EEEAUAUAUAUAUAUAUAUAUAUA(PEG8)2 [Example 92] is above or exactly 1.
Result: 1

---

Assay: CD (circular dichroism) spectroscopy of α-helix structure
Type: physicochemical
Settings: Table 9; linear and cyclic αm-PEG10 peptide complexes, in H2O
[θ]222/[θ]208 under 0.9 gets 1.0, anything at or over 0.9 gets 0.0.

[[record]]
substance = "WAUAUAUAUAUAUAUAU(PEG2)5 [Example 50]"
qualitative_label = 0.0

[[record]]
substance = "WAUAUAUAUAUAUAU(PEG2)5 [Example 101]"
qualitative_label = 0.0

[[record]]
substance = "WAUAUAUAUAUAUAU(PEG2)5 [Example 49]"
qualitative_label = 0.0

[[record]]
substance = "WAUAUAUAUAUAU(PEG2)5 [Example 100]"
qualitative_label = 0.0

[[record]]
substance = "WAUAUAUAUAU(PEG2)5 [Example 47]"
qualitative_label = 1.0


Problem: Given WAUAUAUAUAU(PEG2)5 [Example 99] , is recorded [θ]222/[θ]208 strictly lower than 0.9?
Result: 0.0

---

Test: AFM analysis of self-assembled peptide complexes
Type: physicochemical
Conditions: Table 12; self-assembled structure, 25 μM in distilled water
Non-standard residues stand in square brackets, D forms with d. Primed or numbered codes have the meaning given here. No end group written: not given here. PEG8′ = not defined here; Aib = CC(C)(N)C(=O)O
ENDPOINT: AFM morphology

[[record]]
substance = "RRRAUAUAUAUAUAUAUAUAUAUAGRGDRGDRGDG (RRRA[Aib]A[Aib]A[Aib]A[Aib]A[Aib]A[Aib]A[Aib]A[Aib]A[Aib]A[Aib]AGRGDRGDRGDG) [Example 69]"
endpoint = "AFM morphology"
assay_value = "Vesicle"

[[record]]
substance = "EAUAUAUAUAUAUAUAUAUAUAGSGSGSGS (EA[Aib]A[Aib]A[Aib]A[Aib]A[Aib]A[Aib]A[Aib]A[Aib]A[Aib]A[Aib]AGSGSGSGS) [Example 95]"
endpoint = "AFM morphology"
assay_value = "Vesicle"

[[record]]
substance = "EAUAUAUAUAUAUAUAUAUAUA(PEG8)2 [Example 90]"
endpoint = "AFM morphology"
assay_value = "Micelle"

[[record]]
substance = "Example 41: peptide complex (Wαm-RGD, Wαm-GS), SEQ ID NO 41 (A[Aib]A[Aib]A[Aib]A[Aib]A[Aib]A[Aib]A[Aib]A[Aib]A[Aib]A[Aib]AGRGDRGDRGDG)"
endpoint = "AFM morphology"
assay_value = "Micelle"

[[record]]
substance = "(PEG8)2 AUAUAUAUA [Example 55]"
endpoint = "AFM morphology"
assay_value = "Not assembled"

[[record]]
substance = "(PEG8)2 AUAUAUAUAUAUAUAUAUAUA [Example 57]"
endpoint = "AFM morphology"
assay_value = "Vesicle"


Notebook: EEEAUAUAUAUAUAUAUAUAUAUA(PEG8)2 [Example 92] , AFM morphology read as Vesicle

Notebook: Example 39: peptide complex (Wαm-RGD), SEQ ID NO 39 (A[Aib]A[Aib]A[Aib]A[Aib]A[Aib]A[Aib]A[Aib]AGRGDRGDG) , AFM morphology read as Micelle

Notebook: RAUAUAUAUA(PEG8)2 (RA[Aib]A[Aib]A[Aib]A[Aib]A-{PEG8′-PEG8′-NH2}) [Example 58] , AFM morphology read as Not assembled

Notebook: RGDRGDAUAUAUAUAUAUAUAUAUAUAR [Example 70] , AFM morphology read as Vesicle
